TARGET DESC: DNA (cytosine-5)-methyltransferase 1 (Homo sapiens) (UniProt P26358)
Sequence (P26358 whole entry): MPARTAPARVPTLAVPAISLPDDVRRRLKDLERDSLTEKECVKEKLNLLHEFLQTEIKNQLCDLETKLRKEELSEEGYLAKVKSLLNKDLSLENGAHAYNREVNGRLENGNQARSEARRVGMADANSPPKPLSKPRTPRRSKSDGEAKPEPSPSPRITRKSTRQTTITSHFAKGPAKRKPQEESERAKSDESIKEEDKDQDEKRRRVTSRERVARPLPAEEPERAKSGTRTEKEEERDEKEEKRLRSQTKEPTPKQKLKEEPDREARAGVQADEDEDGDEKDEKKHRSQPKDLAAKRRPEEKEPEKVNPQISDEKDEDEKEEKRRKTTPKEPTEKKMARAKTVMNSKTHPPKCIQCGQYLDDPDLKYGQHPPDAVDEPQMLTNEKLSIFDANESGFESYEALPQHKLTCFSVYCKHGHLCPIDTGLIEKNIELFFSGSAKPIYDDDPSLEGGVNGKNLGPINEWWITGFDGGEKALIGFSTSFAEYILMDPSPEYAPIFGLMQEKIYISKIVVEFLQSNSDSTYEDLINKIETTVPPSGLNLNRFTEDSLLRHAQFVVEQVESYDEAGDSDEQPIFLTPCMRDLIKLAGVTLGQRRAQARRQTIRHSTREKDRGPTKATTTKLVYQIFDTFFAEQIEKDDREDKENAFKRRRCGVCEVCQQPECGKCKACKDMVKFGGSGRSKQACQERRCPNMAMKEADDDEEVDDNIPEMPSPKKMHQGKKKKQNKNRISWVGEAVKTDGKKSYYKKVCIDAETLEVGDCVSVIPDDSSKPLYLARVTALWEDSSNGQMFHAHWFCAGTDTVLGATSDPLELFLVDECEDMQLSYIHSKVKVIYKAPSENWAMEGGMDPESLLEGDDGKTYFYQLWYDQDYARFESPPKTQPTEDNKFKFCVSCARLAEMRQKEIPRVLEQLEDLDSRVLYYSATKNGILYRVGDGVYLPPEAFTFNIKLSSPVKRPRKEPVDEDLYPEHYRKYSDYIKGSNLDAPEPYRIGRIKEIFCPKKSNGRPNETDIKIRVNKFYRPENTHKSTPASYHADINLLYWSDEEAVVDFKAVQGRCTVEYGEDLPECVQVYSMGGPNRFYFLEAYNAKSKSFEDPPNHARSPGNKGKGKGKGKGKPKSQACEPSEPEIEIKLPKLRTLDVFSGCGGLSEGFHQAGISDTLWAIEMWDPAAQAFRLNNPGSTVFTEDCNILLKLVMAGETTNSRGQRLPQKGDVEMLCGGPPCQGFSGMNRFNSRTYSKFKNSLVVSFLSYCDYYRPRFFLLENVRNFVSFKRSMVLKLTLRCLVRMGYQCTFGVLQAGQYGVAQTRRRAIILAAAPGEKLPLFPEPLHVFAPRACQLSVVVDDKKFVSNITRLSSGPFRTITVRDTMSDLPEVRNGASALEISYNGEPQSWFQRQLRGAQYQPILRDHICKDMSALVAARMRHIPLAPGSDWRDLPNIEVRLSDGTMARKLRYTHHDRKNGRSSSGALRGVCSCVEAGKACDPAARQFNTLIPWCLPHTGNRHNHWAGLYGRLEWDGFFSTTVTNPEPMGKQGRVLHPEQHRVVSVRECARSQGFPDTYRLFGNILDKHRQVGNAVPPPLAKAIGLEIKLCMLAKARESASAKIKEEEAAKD
TEST: Inhibition of human DNA methyltransferase using S-adenosyl-L-methionine substrate at 10 to 1000 uM measured after 60 mins
Calls of active or inactive are those of the source. The rule behind the calls is not given here.
Parameter call: string, one of active, inactive

Before answering, review these 4 worked examples.
CC1=C(C)C(=O)N([C@@H](Cc2c[nH]c3ccccc23)C(=O)O)C1=O | active
O=C(O)[C@H](Cc1c[nH]c2ccccc12)N1C(=O)C=C(c2ccccc2)C1=O | active
O=C(O)[C@H](Cc1c[nH]c2ccccc12)N1C(=O)CCC1=O | inactive
O=C(O)[C@H](Cc1c[nH]c2ccccc12)N1C(=O)C=CC1=O | active

Then this molecule:
In: GET /call?item= `CC1=CC(=O)N([C@@H](Cc2c[nH]c3ccccc23)C(=O)O)C1=O` returns the recorded outcome of this test.
Out: active
